Item-by-item account of growth
Tested on: T-47D breast
test_protocol: NCI-60 one-dose screen, 48 h (100 = growth as untreated, 0 = no growth, -100 = all killed)
measurement_conditions: 10 µM
About 83,000 compounds went through this panel and 20% of them were active in at least one assay; those are over-represented in the sample as a whole.

- cpd_smiles: "C=CCn1c(SCC(=O)Nc2ccc(C(=O)/C=C/c3cc(OC)c(OC)c(OC)c3)cc2)nnc1-c1cc(-c2ccc(Cl)cc2)nc2ccccc12"
  growth [%]: 78.4
- cpd_smiles: "O=C(CNc1nnc(-c2cccnc2SCc2ccccc2)s1)Nc1nc(Cl)cc(Cl)n1"
  growth [%]: 79.3
- cpd_smiles: "C=C(C)[C@@H]1CC[C@]2(COCCC#N)CC[C@]3(C)[C@H](CC[C@@H]4[C@@]5(C)Cc6c([nH]c7ccccc67)C(C)(C)[C@@H]5CC[C@]43C)[C@@H]12"
  growth [%]: 81.8

----------
Reported growth values for a set of compounds
System: RXF 393 renal
test_protocol: NCI-60 one-dose screen, 48 h (100 = growth as untreated, 0 = no growth, -100 = all killed)
measurement_conditions: 10 µM
About 83,000 compounds went through this panel and 20% of them were active in at least one assay; those are over-represented in the sample as a whole.
endpoint_name: growth (%)

- cpd_smiles: "O=C1c2ccccc2C(=O)c2c1ccc1c(=O)n(-c3ccccc3C(F)(F)F)nnc21"
  unit_of_measurement: "%"
  obs_value: 28.9
- cpd_smiles: "CCOC(=O)CN(c1sc(C)c(C)c1C(=O)OCC)S(=O)(=O)c1ccc(C)cc1"
  unit_of_measurement: "%"
  obs_value: 92.1
- cpd_smiles: "CCn1c2ccc(O)cc2c2c(C)c3c[n+](C)ccc3c(C)c21"
  unit_of_measurement: "%"
  obs_value: 57.1
- cpd_smiles: "Nc1ccn(Cc2nnc(CCC(=O)c3nc4ccccc4[nH]3)o2)c(=O)n1"
  unit_of_measurement: "%"
  obs_value: 98.5
- cpd_smiles: "CC(=O)Nc1ccc(S(=O)(=O)N/N=C(\\C)c2ccc(C)cc2C)cc1"
  unit_of_measurement: "%"
  obs_value: 129
- cpd_smiles: "O=C(O)c1cn(C2CC2)c2cc(N3CCN(C(=O)c4cc(-c5ccc(Cl)cc5)nc5ccccc45)CC3)c(F)cc2c1=O"
  unit_of_measurement: "%"
  obs_value: 73.6
- cpd_smiles: "CNC(=O)c1cn2c3c(c(N4CCN(C)CC4)c(F)cc3c1=O)OC[C@@H]2C"
  unit_of_measurement: "%"
  obs_value: 103

----------
Tested on: SN12C renal
test_protocol: NCI-60 one-dose screen, 48 h
measurement_conditions: 10 µM
This is part of a sample that, as a whole, favours compounds with a hit. Of some 83,000 tested, about 20% had one in any assay. Activity calls are given as the source filed them. How the source made its calls: active means growth percent below 10; inactive means the rest.
Outcomes: TRUE for active, FALSE for inactive

- cpd_smiles: "O=c1c(Br)ccc(Br)cc1Br"
  tested_target: "SN12C renal"
  classification: "TRUE"
- cpd_smiles: "Cc1n[nH]c(C)c1N=Nc1cccc2c1C(=O)c1ccccc1C2=O"
  tested_target: "SN12C renal"
  classification: "FALSE"
- cpd_smiles: "Cc1cc(CSc2ccccc2C(=O)N2CC=C(c3ccccc3)CC2)on1"
  tested_target: "SN12C renal"
  classification: "FALSE"

All values here come from PubChem BioAssay (NCI).
